# Tested on: EKVX NSCLC
# experimentSummary: NCI tumour cell line growth inhibition, 48 h
Entries annotated with measured TGI

molecule	reportedMetric	dataValue
CN1C(=O)C(Cl)(C(Cl)(Cl)S(=O)(=O)O)C(=O)c2ccccc21 (stereo not given)	TGI	> 100 µM
O=C(N[C@H]1c2ccsc2/C(=N/O)[C@H]1O)C(F)(F)F	TGI	> 100 µM
CC(C)(C)OC[C@H](O)CC#N	TGI	> 100 µM
Nc1nc(CCC(=O)Nc2cccc(C(F)(F)F)c2)cc(-c2ccc3ccccc3c2)n1	TGI	> 100 µM
COc1cc(/C=C2/N=C(c3ccccc3)N(C3=NNC4(C(=O)N3)c3ccccc3-c3ccccc34)NC2=O)ccc1O	TGI	15 µg/mL
COc1cc(C2SCC(=O)N2c2ccc(Oc3ccc(Cl)cc3)c(Cl)c2)cc(OC)c1OC (stereo not given)	TGI	56.2 µM

Need TGI, item COc1ccc(/C=C2\N=C(c3ccccc3)N(C3Nc4cc5c(cc4S3)NC(N3C(=O)/C(=C/c4ccc(OC)cc4)N=C3c3ccccc3)S5)C2=O)cc1 (stereo not given)
99.5 µM

For the molecule shown here, O=[N+]([O-])c1nccn1COCCBr , give the reported TGI.
> 100 µM

Could you tell me which TGI is on file for CSC1=NS(=O)(=O)c2cc(C(=O)NN(C)C(=O)c3cc4c(cc3Cl)SC(SC)=NS4(=O)=O)c(Cl)cc2S1 ?
> 10 µM

Entry O=C1/C(=C2\Sc3c(ccc(Cl)c3Cl)C2=O)Sc2c1ccc(Cl)c2Cl has what TGI?
> 100 µM

Field request: TGI | item: OCC1OC(n2cnc3c(/C=C(/O)c4ccccc4)ncnc32)C(O)C1O (stereo not given)
> 100 µM
